Every entry's value here was drawn from patent US11498930B2.

- measurement-target: SHP2^E76A protein (Homo sapiens (Human), UniProt Q06124, E76A)
- Sequence (Q06124 whole entry E76A): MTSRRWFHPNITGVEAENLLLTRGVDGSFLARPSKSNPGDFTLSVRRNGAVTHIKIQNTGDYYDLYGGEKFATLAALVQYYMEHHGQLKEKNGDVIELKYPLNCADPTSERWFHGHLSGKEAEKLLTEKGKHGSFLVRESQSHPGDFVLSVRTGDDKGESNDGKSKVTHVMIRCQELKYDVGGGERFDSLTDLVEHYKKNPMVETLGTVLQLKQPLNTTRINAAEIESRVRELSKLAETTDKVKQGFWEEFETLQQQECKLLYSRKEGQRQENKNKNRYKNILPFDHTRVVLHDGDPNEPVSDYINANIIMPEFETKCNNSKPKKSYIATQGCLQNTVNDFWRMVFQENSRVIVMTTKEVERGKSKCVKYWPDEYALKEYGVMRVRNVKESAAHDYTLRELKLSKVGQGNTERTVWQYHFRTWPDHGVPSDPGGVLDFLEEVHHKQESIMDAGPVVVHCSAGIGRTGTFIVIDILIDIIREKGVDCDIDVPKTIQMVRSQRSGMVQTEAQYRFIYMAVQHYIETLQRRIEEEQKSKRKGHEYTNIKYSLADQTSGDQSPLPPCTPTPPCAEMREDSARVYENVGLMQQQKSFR
- assay-remarks: SHP2 enzyme activity inhibition experiment
- Assay type: biochemical
- assay-setup: SHP2 enzyme activity, Tables 1.1 and 1.2; read-out: IC50
pIC50: −log10 of the molar value.
reported-endpoint: pIC50

Ask: Requested read-out: pIC50. Entry: Nc1nccc(Sc2cnc(N3CCC4(CC3)COC[C@H]4N)n3cnnc23)c1Cl
Result: 6.00 to 7.00

Ask: Requested read-out: pIC50. Entry: C[C@H]1OCC2(CCN(c3ncc(Sc4ccnc(N)c4Cl)c4nncn34)CC2)[C@H]1N
Result: 5.00 to 6.00

Ask: Requested read-out: pIC50. Entry: N[C@@H]1CCCC12CCN(c1ncc(Sc3ccccc3)c3nccn13)CC2
Result: 6.00 to 7.00

Ask: Requested read-out: pIC50. Entry: C[C@@H]1OCC2(CCN(c3ncc(Sc4cc(N)ncc4Cl)c4nccn34)CC2)[C@@H]1N
Result: > 7.00

Ask: Requested read-out: pIC50. Entry: Cc1nc(N)cc(Sc2cnc(N3CCC4(CC3)CC(F)(F)C[C@H]4N)n3ccnc23)c1Cl
Result: > 7.00

Answer for every listed entry: what is its pIC50? The entries follow.
1. N[C@@H]1CCCC12CCN(c1ncc(Sc3cccc4c3C(=O)C(=O)N4)c3nccn13)CC2
2. N[C@@H]1CCCC12CCN(c1ncc(Sc3ccc4c(c3)CCO4)c3nccn13)CC2
3. N[C@@H]1CCCC12CCN(c1ncc(Sc3cccc4ccccc34)c3nccn13)CC2
4. C[C@@H]1OCC2(CCN(c3ncc(Sc4ccnc(Cl)c4Cl)c4nncn34)CC2)[C@@H]1N
5. N[C@@H]1CCCC12CCN(c1ncc(Sc3cccnc3Cl)c3nccn13)CC2
6. CC1(C)COC2(CCN(c3ncc(Sc4cccc(Cl)c4Cl)c4nccn34)CC2)[C@@H]1N
7. C[C@@H]1OCC2(CCN(c3ncc(Sc4ccnc(N)c4Cl)c4nccn34)CC2)[C@@H]1N

Result:
1. 6.00 to 7.00
2. 6.00 to 7.00
3. > 7.00
4. > 7.00
5. > 7.00
6. 6.00 to 7.00
7. > 7.00
